- EXPERIMENT_SUMMARY: Membrane permeability test of cyclic peptides (Caco-2, modified/improved method of WO 2018/124162)
- RUN_PARAMETERS: human, Caco-2, Caco-2 (membrane permeability), Table 6, cyclic peptides containing Ser(1-CF3-EtOH) (C) or Hnl(7-F3-6-OH) (D)
*1 amine or outer side, *2 acyl side, *3 side chain or, on linkers, in order; H or OH if unused. Where a SMILES comes first, the peptide text is derived from it. Bridges are numbered along the chain shown (N, C = ends). [ ]: non-standard residue; d: D form. The star is where a group is joined. X12 = O=C([C@H](CCCC(O)C(F)(F)F)N[*:1])[*:2]; NMeF = CN[C@@H](Cc1ccccc1)C(=O)O; NMeGABA = CN(CCCC(=O)[*:2])[*:1]; NMeL = CN[C@@H](CC(C)C)C(=O)O; NMeAbu = CC[C@H](NC)C(=O)O; Piperidide = C1CCN(*)CC1; tBu = CC(C)(C)*
REPORTED_PROPERTY: Papp (×10⁻⁶ cm/s)

INSERT INTO assay_data (molecule, reported_property, measurement) VALUES
  ('CC[C@H](C)[C@@H]1NC(=O)[C@H](CC(C)C)N(C)C(=O)[C@H](COC(C)(C)C)NC(=O)[C@H](Cc2ccccc2)N(C)C(=O)[C@H](Cc2ccccc2)N(C)C(=O)[C@H](CCCC(O)C(F)(F)F)NC(=O)[C@H](CC)N(C)C(=O)CCCN(C)C(=O)C[C@@H](C(=O)N2CCCCC2)NC(=O)[C@H](CC(C)C)N(C)C(=O)[C@H](CC(C)C)N(C)C1=O (stereo partly drawn) [Compound D13] ([NMeGABA][NMeAbu][X12][NMeF][NMeF]S(tBu)[NMeL]I[NMeL][NMeL]D-Piperidide; lactam N-11)', 'Papp', 0.14),
  ('CC(C)C[C@H]1C(=O)N[C@@H](C(C)C)C(=O)N(C)[C@@H](Cc2ccccc2)C(=O)N(C)[C@@H](Cc2ccccc2)C(=O)N[C@@H](COC(C)(C)C)C(=O)N(C)[C@@H](CC(C)C)C(=O)N[C@@H](CCCC(O)C(F)(F)F)C(=O)N(C)[C@@H](CC(C)C)C(=O)N(C)[C@@H](CC(C)C)C(=O)N[C@H](C(=O)N2CCCCC2)CC(=O)N(C)CCCC(=O)N1C (stereo partly drawn) [Compound D12] ([NMeGABA][NMeL]V[NMeF][NMeF]S(tBu)[NMeL][X12][NMeL][NMeL]D-Piperidide; lactam N-11)', 'Papp', 0.13);

* * *

- EXPERIMENT_SUMMARY: in vitro
- RUN_PARAMETERS: human, Caco-2, Caco-2
*1 amine or outer side, *2 acyl side, *3 side chain or, on linkers, in order; H or OH if unused. Where a SMILES comes first, the peptide text is derived from it. Bridges are numbered along the chain shown (N, C = ends). [ ]: non-standard residue; d: D form. The star is where a group is joined. ξ: configuration not given here. X17 = CC(C)C[C@@H](C(=O)[*:2])C(C)C(=O)CCCN(C)[*:1]; NMePhe(3-Cl) = CN[C@@H](Cc1cccc(Cl)c1)C(=O)O; ξGln(SO2Me) = CS(=O)(=O)NC(=O)CCC(N)C(=O)O; NMeF = CN[C@@H](Cc1ccccc1)C(=O)O; NMeL = CN[C@@H](CC(C)C)C(=O)O; NMeV = CN[C@H](C(=O)O)C(C)C; NMeAbu = CC[C@H](NC)C(=O)O; Piperidide = C1CCN(*)CC1; NBuGly = CCCCNCC(=O)O; Sar = CNCC(=O)O
Each item that follows carries a reported Papp.
REPORTED_PROPERTY: Papp (×10⁻⁶ cm/s)

INSERT INTO measurements (compound, unit_spec, comparison_symbol, measurement) VALUES
  ('CCCCN1CC(=O)N(C)[C@@H](Cc2ccccc2)C(=O)NC(CCC(=O)NS(C)(=O)=O)C(=O)N(C)[C@@H](CC(C)C)C(=O)N[C@@H]([C@@H](C)O)C(=O)N(CCCC)CC(=O)N(C)[C@@H](Cc2ccccc2)C(=O)N(C)[C@@H](CC(C)C)C(=O)N[C@@H](CC(C)C)C(=O)N(C)[C@@H](CC(C)C)C(=O)N[C@H](C(=O)N2CCCCC2)CC1=O (stereo partly drawn) [pd65] ([NBuGly][NMeF][ξGln(SO2Me)][NMeL]T[NBuGly][NMeF][NMeL]L[NMeL]D-Piperidide; lactam N-11)', '×10⁻⁶ cm/s', '=', 0.06),
  ('CCCCN1CC(=O)N(C)[C@@H](C(C)C)C(=O)N[C@H](C(=O)N2CCCCC2)CC(=O)N(C)[C@@H](CC(C)C)C(=O)NC(CCC(=O)NS(C)(=O)=O)C(=O)N(C)[C@@H](CC(C)C)C(=O)N(C)[C@@H](Cc2ccccc2)C(=O)N[C@@H](CC(C)C)C(=O)N(C)[C@@H](Cc2ccccc2)C(=O)N(C)[C@@H](CC(C)C)C(=O)N[C@@H]([C@@H](C)O)C1=O (stereo partly drawn) [pd62] ([NMeL][ξGln(SO2Me)][NMeL][NMeF]L[NMeF][NMeL]T[NBuGly][NMeV]D-Piperidide; lactam N-11)', '×10⁻⁶ cm/s', '<', 0.13),
  ('CCCCN1CC(=O)N(C)[C@@H](CC(C)C)C(=O)N[C@H](C(=O)N2CCCCC2)CC(=O)N(C)[C@@H](CC(C)C)C(=O)N[C@@H](CC(C)C)C(=O)N(C)[C@@H](CC)C(=O)N(C)[C@@H](Cc2ccccc2)C(=O)NC(CCC(=O)NS(C)(=O)=O)C(=O)N(C)[C@@H](Cc2cccc(Cl)c2)C(=O)N(C)[C@@H](CC(C)C)C(=O)N[C@@H]([C@@H](C)O)C1=O (stereo partly drawn) [pd64] ([NMeL]L[NMeAbu][NMeF][ξGln(SO2Me)][NMePhe(3-Cl)][NMeL]T[NBuGly][NMeL]D-Piperidide; lactam N-11)', '×10⁻⁶ cm/s', '=', 0.15),
  ('CCCCN1CC(=O)N(C)[C@@H](Cc2ccccc2)C(=O)NC(CCC(=O)NS(C)(=O)=O)C(=O)N(C)[C@@H](CC(C)C)C(=O)N[C@@H](CC(C)C)C(=O)N(C)CC(=O)N(C)[C@@H](Cc2ccccc2)C(=O)N(C)[C@@H](CC(C)C)C(=O)N[C@@H](CC(C)C)C(=O)N(C)[C@@H](CC(C)C)C(=O)N[C@H](C(=O)N2CCCCC2)CC1=O (stereo partly drawn) [pd70] ([NBuGly][NMeF][ξGln(SO2Me)][NMeL]L[Sar][NMeF][NMeL]L[NMeL]D-Piperidide; lactam N-11)', '×10⁻⁶ cm/s', '=', 0.17),
  ('CC(C)C[C@@H]1NC(=O)[C@H](CC(C)C)C(C)C(=O)CCCN(C)C(=O)C[C@@H](C(=O)N2CCCCC2)NC(=O)[C@H](CC(C)C)N(C)C(=O)[C@H](CC(C)C)N(C)C(=O)[C@H](CC(C)C)NC(=O)[C@H](CC(C)C)N(C)C(=O)C(CCC(=O)NS(C)(=O)=O)NC(=O)[C@H](Cc2ccccc2)N(C)C(=O)[C@H](Cc2ccccc2)N(C)C1=O (stereo partly drawn) [pd68] ([X17]L[NMeF][NMeF][ξGln(SO2Me)][NMeL]L[NMeL][NMeL]D-Piperidide; lactam N-10)', '×10⁻⁶ cm/s', '=', 0.1);
